# TGT: COX-1 (ovine) (Ovis aries, UniProt P05979)
# Construct: purchased Cayman Chemical
# Sequence (P05979 25-600): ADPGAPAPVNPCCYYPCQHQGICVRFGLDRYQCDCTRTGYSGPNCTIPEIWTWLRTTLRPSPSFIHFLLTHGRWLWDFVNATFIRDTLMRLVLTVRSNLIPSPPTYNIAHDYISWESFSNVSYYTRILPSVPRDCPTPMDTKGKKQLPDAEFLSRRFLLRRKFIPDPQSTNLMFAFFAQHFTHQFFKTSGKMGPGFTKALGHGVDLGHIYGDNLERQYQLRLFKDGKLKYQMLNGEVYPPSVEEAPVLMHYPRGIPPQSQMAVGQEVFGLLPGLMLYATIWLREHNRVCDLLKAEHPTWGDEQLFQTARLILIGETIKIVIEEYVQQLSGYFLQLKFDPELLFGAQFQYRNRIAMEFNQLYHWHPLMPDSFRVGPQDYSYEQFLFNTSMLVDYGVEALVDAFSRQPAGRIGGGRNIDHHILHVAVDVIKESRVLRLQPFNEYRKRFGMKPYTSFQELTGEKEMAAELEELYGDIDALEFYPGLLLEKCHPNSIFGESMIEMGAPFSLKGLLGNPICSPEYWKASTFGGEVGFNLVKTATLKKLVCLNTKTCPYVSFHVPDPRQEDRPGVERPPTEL
# EXPERIMENT: In vitro COX-1 inhibition assay (EIA kit)
# Type: biochemical
# TEST_CONTEXT: mean of three replicates ± SEM; read-out: IC50 data COX-1
RECORDED_METRIC: IC50 (µM)
// note: answer is a bare numeric in µM

**Query** Give a short answer stating reported IC50 for `CCCCC[C@H](O)CC(=O)CCc1ccc(O)c(OC)c1` .
**Result** 27.1

----------
# TGT: COX-1 (ovine) (Ovis aries, UniProt P05979)
# Construct: purchased Cayman Chemical
# EXPERIMENT: In vitro COX-1 inhibition assay (EIA kit)
# Format: biochemical
RECORDED_METRIC: IC50 (µM)
Express it in µM; write the number only.

MOLECULE_SMILES	MEASURED_VALUE
COc1cc(/C=C/C(=O)CC(=O)/C=C/c2ccc(O)c(OC)c2)ccc1O	18.6

Query compound follows.
**Query** Quote IC50 reported for `COc1cc(CNC(=O)CCCC/C=C/C(C)C)ccc1O` please.
**Result** 24.4
